# protocol-summary: TIMS collisional cross section (CCS, N2) of the lipid ion; higher = larger ion cross section
# measurement-setup: sample type: Liver; ionization mode: positive; one isomer drawn
Outcome label depends on TIMS collisional cross section relative to 300 Å²: at/above gives 1 (yes), below gives 0 (no).

CCCCC/C=C\C/C=C\C/C=C\C/C=C\CCCC(=O)O[C@@H](CO)COC(=O)CCCCCCC/C=C\C/C=C\CCCCC [DG 18:2_20:4_0:0] (ion (formula + adduct): [C41H68O5+NH4] 1+) | 0 (no)

Exercise: # check: TIMS collisional cross section of CCCCC/C=C\C/C=C\C/C=C\C/C=C\CCCC(=O)O[C@@H](CO)COC(=O)CCCCCCCCCCCCCCCCCC [DG 19:0_20:4_0:0] (ion (formula + adduct): [C42H74O5+NH4] 1+) is greater than or equal to 300 Å²
Solution: 0 (no)

Exercise: # check: TIMS collisional cross section of CCCCCCCC/C=C\CCCCCCCC(=O)OC[C@@H](COC(=O)CCCCCCCCCCCCCCC)OC(=O)CCCCCCCCCCCCCCCCC [TG 16:0_18:0_18:1] (ion (formula + adduct): [C55H104O6+NH4] 1+) is greater than or equal to 300 Å²
Solution: 1 (yes)

Exercise: # check: TIMS collisional cross section of CCCCCCCCCCCCC/C=C/C=C/C(=O)OC[C@@H](O)COP(=O)([O-])OCC[N+](C)(C)C [LPC 18:2_0:0] (ion (formula + adduct): [C26H50NO7P+H] 1+) is greater than or equal to 300 Å²
Solution: 0 (no)

###

# TIMS collisional cross section per record follows
# protocol-summary: TIMS collisional cross section (CCS, N2) of the lipid ion; higher = larger ion cross section
# measurement-setup: sample type: plasma; ionization mode: positive; one isomer drawn
± gives the standard deviation of the averaged measurements.

# annotated cases, reported TIMS collisional cross section shown
CCCCC/C=C\C/C=C\C/C=C\C/C=C\CCCCCC(=O)O[C@H](COCCCCCCCCCCCCCCCC)COP(=O)([O-])OCC[N+](C)(C)C [PC O- 16:0@_22:4] (ion (formula + adduct): [C46H86NO7P+H] 1+) | 296.3 Å²
CCCCCCCCCCCCCCCCCCCC(=O)OC[C@@H](COC(=O)CCCCCCCCCCCCCCC)OC(=O)CCCCCCCCCCCCCCCCC [TG 16:0_18:0_20:0] (ion (formula + adduct): [C57H110O6+NH4] 1+) | 332.5 ± 0.14 Å²

Exercise: Supply measured TIMS collisional cross section of CC/C=C\C/C=C\C/C=C\C/C=C\C/C=C\C/C=C\CCC(=O)O[C@H](COC(=O)CCCCCCC/C=C\CCCCC)COP(=O)([O-])OCC[N+](C)(C)C [PC 15:1_22:6] (ion (formula + adduct): [C45H76NO8P+H] 1+) in your reply.
Solution: 289.8 Å²

Exercise: Supply measured TIMS collisional cross section of CCCCCCCCCCCCCCCC(=O)OC[C@@H](COC(=O)CCCCCCCCCCCCCC)OC(=O)CCCCCCCCCCCCCCC [TG 15:0_16:0_16:0] (ion (formula + adduct): [C50H96O6+NH4] 1+) in your reply.
Solution: 311.3 ± 0.14 Å²

###

# protocol-summary: TIMS collisional cross section (CCS, N2) of the lipid ion; higher = larger ion cross section
# measurement-setup: sample type: plasma; ionization mode: positive; one isomer drawn
# TIMS collisional cross section per record follows
Provide the measurement as a number trailed by its unit.

# annotated cases, reported TIMS collisional cross section shown
CCCCCCCC/C=C\CCCCCCCC(=O)O[C@H](COC(=O)CCCCCCCCCCCCCCCC)COC(=O)CCCCCCCCCCCCCCCCCCCCC [TG 17:0_18:1_22:0] (ion (formula + adduct): [C60H114O6+NH4] 1+) | 338.7 Å²
CCCCC/C=C\C/C=C\C/C=C\C/C=C\CCCC(=O)O[C@H](COC(=O)CCCCCCCCCCCCCCCCC)COP(=O)(O)OCCN [PE 18:0_20:4] (ion (formula + adduct): [C43H78NO8P+H] 1+) | 283.5 Å²
CCCCCCCC/C=C\CCCCCCCCCC(=O)OC[C@@H](O)COP(=O)(O)OCCN [LPE 20:1] (ion (formula + adduct): [C25H50NO7P+H] 1+) | 223.3 Å²

Exercise: Supply measured TIMS collisional cross section of CCCC/C=C\CCCCCCCC(=O)OC[C@H](COC(=O)CCCCCCC/C=C\CCCCCC)OC(=O)CCCCCCCCCCCCCC [TG 14:1_15:0_16:1] (ion (formula + adduct): [C48H88O6+NH4] 1+) in your reply.
Solution: 300.5 Å²

Exercise: Supply measured TIMS collisional cross section of CCCCC/C=C\C/C=C\CCCCCCCC(=O)O[C@H](COCCCCCCCCCCCCCCCCCC)COP(=O)([O-])OCC[N+](C)(C)C [PC O- 18:0@_18:2] (ion (formula + adduct): [C44H86NO7P+H] 1+) in your reply.
Solution: 294.7 Å²

###

# protocol-summary: TIMS collisional cross section (CCS, N2) of the lipid ion; higher = larger ion cross section
# measurement-setup: sample type: Liver; ionization mode: positive; one isomer drawn
# TIMS collisional cross section per record follows
Provide the measurement as a number trailed by its unit.

# annotated cases, reported TIMS collisional cross section shown
CCCCCCCCCCCCCCCCC(=O)OC[C@@H](COC(=O)CCCCCCCCCCCCC)OC(=O)CCCCCCCCCCCCCCC [TG 14:0_16:0_17:0] (ion (formula + adduct): [C50H96O6+NH4] 1+) | 311.5 Å²
CC/C=C\C/C=C\C/C=C\C/C=C\C/C=C\C/C=C\CCC(=O)O[C@H](COC(=O)CCCCCCCCCCCCCC)COP(=O)([O-])OCC[N+](C)(C)C [PC 15:0_22:6] (ion (formula + adduct): [C45H78NO8P+H] 1+) | 288 Å²
CCCCCCCC/C=C\CCCCCCCC(=O)OC[C@@H](COC(=O)CCCCCCCCCCCCC)OC(=O)CCCCCCCCCCCCCCCC [TG 14:0_17:0_18:1] (ion (formula + adduct): [C52H98O6+NH4] 1+) | 315.3 Å²
CCCCC/C=C\C/C=C\C/C=C\C/C=C\CCCC(=O)O[C@@H](CO)COC(=O)CCCCCCCCCCCCCCCCC [DG 18:0_20:4_0:0] (ion (formula + adduct): [C41H72O5+NH4] 1+) | 270.8 Å²

Exercise: Supply measured TIMS collisional cross section of CC(C)(O)CCC(=O)[C@](C)(O)[C@H]1[C@H](O)C[C@@]2(C)[C@@H]3CC=C4[C@@H](C[C@@H](O)[C@@H](O)C4(C)C)[C@]3(C)C(=O)C[C@]12C [Cucurbitacin P] (ion (formula + adduct): [C30H48O7+H] 1+) in your reply.
Solution: 231.3 Å²

###

# TIMS collisional cross section per record follows
# protocol-summary: TIMS collisional cross section (CCS, N2) of the lipid ion; higher = larger ion cross section
# measurement-setup: sample type: plasma; ionization mode: positive; one isomer drawn

# annotated cases, reported TIMS collisional cross section shown
CCCCC/C=C\C/C=C\CCCCCCCC(=O)O[C@H](CO/C=C\CCCCCCCCCCCCCCCCCC)COP(=O)(O)OCCN [PE P- 20:0@_18:2] (ion (formula + adduct): [C43H82NO7P+H] 1+) | 285 Å²
CCCCCC/C=C\CCCCCCCC(=O)OC[C@H](COC(=O)CCCCCCC/C=C\CCCCCCCC)OC(=O)CCCCCCC/C=C\CCCCCCCC [TG 16:1_18:1_18:1] (ion (formula + adduct): [C55H100O6+NH4] 1+) | 320.1 Å²
CCCCC/C=C\C/C=C\CCCCCCCC(=O)OC[C@@H](COC(=O)CCCCCCCCCCCCCCCC)OC(=O)CCCCCCC/C=C\CCCCCCCC [TG 17:0_18:1_18:2] (ion (formula + adduct): [C56H102O6+NH4] 1+) | 323.2 Å²
CCCCCC/C=C/CCCCCCCCCC(=O)OC[C@@H](COC(=O)CCCCCCCCCCCCCCC)OC(=O)CCCCCCCCCCCCCCC [TG 16:0_16:0_18:1] (ion (formula + adduct): [C53H100O6+NH4] 1+) | 318.4 Å²

Let us move to another entry and its TIMS collisional cross section.
Exercise: Supply measured TIMS collisional cross section of CCCCC/C=C\C/C=C\CCCCCCCC(=O)O[C@@H](CO)COC(=O)CCCCCCC/C=C\CCCCCCCC [DG 18:1_18:2_0:0] (ion (formula + adduct): [C39H70O5+NH4] 1+) in your reply.
Solution: 261.2 Å²

###

# protocol-summary: TIMS collisional cross section (CCS, N2) of the lipid ion; higher = larger ion cross section
# measurement-setup: sample type: Liver; ionization mode: positive; one isomer drawn
# TIMS collisional cross section per record follows
Numeric only. Scale: Å²

# annotated cases, reported TIMS collisional cross section shown
CCCCCC/C=C\CCCCCCCC(=O)O[C@H](COC(=O)CCCCCCCCCCCCCCC)COP(=O)([O-])OCC[N+](C)(C)C [PC 16:0_16:1] (ion (formula + adduct): [C40H78NO8P+H] 1+) | 282.3
CCCCCC/C=C\CCCCCCCC(=O)OC[C@@H](COC(=O)CCCCCCCCCCCCCCC)OC(=O)CCCCCCC/C=C\CCCCCC [TG 16:0_16:1_16:1] (ion (formula + adduct): [C51H94O6+NH4] 1+) | 310.2
CC/C=C\C/C=C\C/C=C\C/C=C\C/C=C\C/C=C\CCC(=O)O[C@H](COC(=O)CCCCCCCCCCCCCCC)COP(=O)(O)OCCN [PE 16:0_22:6@] (ion (formula + adduct): [C43H74NO8P+H] 1+) | 280.9
CC/C=C\C/C=C\C/C=C\C/C=C\C/C=C\CCCCCC(=O)O[C@@H](CO)COC(=O)CCCCCCCCCCCCCCC [DG 16:0_22:5_0:0] (ion (formula + adduct): [C41H70O5+NH4] 1+) | 270
CCCCCCCCCCCCCCCCC(=O)OC[C@@H](COC(=O)CCCCCCCCCCCC)OC(=O)CCCCCCCCCCCCC [TG 13:0_14:0_17:0] (ion (formula + adduct): [C47H90O6+NH4] 1+) | 301.8

Let us move to another entry and its TIMS collisional cross section.
Exercise: Supply measured TIMS collisional cross section of CCCCC/C=C\C/C=C\CCCCCCCC(=O)O[C@@H](CO)COC(=O)CCCCCCCCCCCCCCCC [DG 17:0_18:2_0:0] (ion (formula + adduct): [C38H70O5+NH4] 1+) in your reply.
Solution: 262.8

Ref: the supplement of paper PMC6965134
